Listed here are binders together with their documented NanoBRET Abs IC50.
Target: T1, Bcat-Halo (UniProt P35222 1-781)
T1 sequence (looked up): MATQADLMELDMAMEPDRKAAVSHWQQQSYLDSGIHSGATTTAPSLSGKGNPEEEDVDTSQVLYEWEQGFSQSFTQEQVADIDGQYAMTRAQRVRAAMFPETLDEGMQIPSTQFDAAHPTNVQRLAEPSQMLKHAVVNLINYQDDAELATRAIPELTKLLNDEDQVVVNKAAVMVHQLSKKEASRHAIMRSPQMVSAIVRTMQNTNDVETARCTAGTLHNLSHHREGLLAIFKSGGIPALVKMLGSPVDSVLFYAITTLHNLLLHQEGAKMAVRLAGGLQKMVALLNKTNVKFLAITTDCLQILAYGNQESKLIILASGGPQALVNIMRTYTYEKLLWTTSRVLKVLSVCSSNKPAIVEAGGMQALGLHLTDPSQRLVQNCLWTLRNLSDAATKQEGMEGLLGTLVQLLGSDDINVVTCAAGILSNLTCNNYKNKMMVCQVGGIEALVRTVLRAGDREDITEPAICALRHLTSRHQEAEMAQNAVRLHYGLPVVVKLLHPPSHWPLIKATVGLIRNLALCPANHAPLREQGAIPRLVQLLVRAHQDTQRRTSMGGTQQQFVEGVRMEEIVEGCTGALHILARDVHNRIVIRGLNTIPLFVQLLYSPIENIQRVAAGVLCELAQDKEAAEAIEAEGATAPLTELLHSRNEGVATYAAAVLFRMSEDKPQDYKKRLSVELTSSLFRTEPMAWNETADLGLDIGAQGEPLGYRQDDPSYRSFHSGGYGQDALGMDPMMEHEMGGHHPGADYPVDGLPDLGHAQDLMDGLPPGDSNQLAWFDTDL
Test: cell-based or functional assay
Starred links: 1 amine or outer side, 2 acyl side, 3 side chain; linkers in the order of their positions; H or OH if unused. Positions of bridges follow the written chain, without caps; N, C: chain ends. Non-standard residues stand in square brackets, D forms with d. Primed or numbered codes have the meaning given here. PyrS2″ = (S)-3-amino-1-((pent-4-en-1-yloxy)carbonyl)pyrrolidine-3-carboxylic acid (stapling residue), C=CCCCOC(=O)N1CC[C@@](N[*:1])(C(=O)[*:2])C1; B5(4) = 2,2-bis(4-pentenyl)glycine = 2-amino-2-(pent-4-en-1-yl)hept-6-enoic acid (stitching residue), C=CCCCC(CCCC=C)(N[*:1])C(=O)[*:2]; Phe(3-COOH) = N[C@@H](Cc1cccc(C(=O)O)c1)C(=O)O; Bta = N[C@@H](Cc1csc2ccccc12)C(=O)O; Lys(iPr) = CC(C)NCCCC[C@H](N)C(=O)O; hTyr = N[C@@H](CCc1ccc(O)cc1)C(=O)O; αAllylPro = C=CC[C@@]1(C(=O)O)CCCN1; tBuAla = CC(C)(C)C[C@H](N)C(=O)O; 3Thi = N[C@@H](Cc1ccsc1)C(=O)O; Cha = N[C@@H](CC1CCCCC1)C(=O)O

{"columns": ["BINDER", "EXPERIMENTAL RESULT"],
 "data": [
  ["Ac-[αAllylPro]D[tBuAla][B5(4)]D[hTyr]AA[Phe(3-COOH)]N[PyrS2″][3Thi][Bta]Q-NH2 (staple 1-4, 4-11; also: earlier eluting HPLC isomer composition) [I-2114]", "> 20 µM"]
]}

Switching to the query record.
Entry Ac-[αAllylPro]N[Cha][B5(4)]DQ[Lys(iPr)]AFN[PyrS2″]F[Bta]N-NH2 (staple 1-4, 4-11) [I-2111] — recorded NanoBRET Abs IC50 = > 20 µM
